Recorded growth by entry
System: CAKI-1 renal
Assay: NCI-60 one-dose screen, 48 h (100 = growth as untreated, 0 = no growth, -100 = all killed)
Details: 10 µM unless noted
Experimental: Growth inhibition of the CAKI-1 human tumor cell line is measured as a screen for anti-cancer activity. Cells are grown in 96 well plates and exposed to the test compound for 48 hours. Compounds are tested at a single concentration, which is 10^-5 M for most compounds. The reported endpoint is percent growth (GI% or GIPRCNT), where numbers from 0 - 100% represent growth inhibition, and numbers from -100% - 0 represent cell death. For example, a value of 40 represents 60% growth inhibition. […]
The panel holds about 83,000 compounds, 20% with a hit somewhere; the sample as a whole holds those more often.
Entry rule: numbers only, all in %.

Sample answers from the record:
Enquiry: Need growth, item Nc1cc2nc3ccccc3sc-2cc1=O
Return: 56.3

Enquiry: Need growth, item COc1ccc(/C=C/C(=O)c2ccc(NC(=O)c3cc4cc5ccccc5nc4s3)cc2)cc1OC
Return: 98

Enquiry: Need growth, item CCOC(=O)/C=C/C(=O)[C@H](CC(C)C)NC(=O)[C@H](Cc1ccccc1)NC(=O)OCc1ccccc1
Return: 74.8

Enquiry: Need growth, item Cc1cc(=O)oc2cc(Oc3nc(-c4cccs4)cn4c(-c5cccs5)cnc34)ccc12
Return: 67.8

Enquiry: Need growth, item CCOC(=O)c1c2c(n3ccc(NC(=O)CCN(CC)CC)cc13)C(=O)c1ncccc1C2=O
Return: 23

Enquiry: Need growth, item CCOC(=O)c1nc(Nc2cc(C)[nH]n2)c2ccccc2n1
Return: 37.7

New cases:
Enquiry: Need growth, item CCN(CC)CCCC(C)NCCCNc1cccc2cccnc12 (stereo unspecified)
Return: 98.4

Enquiry: Need growth, item CC1=NNC(=O)C1C (stereo unspecified)
Return: 81.5

Enquiry: Need growth, item CCCCCCCCCCCCCCCCCCNC(=O)[C@H]1CSC(c2ccc(F)c(OC)c2)N1 (stereo partly specified)
Return: -76.8

Enquiry: Need growth, item C=C1CCC2C3(C)COC(C)(C)OC3CCC2(C)C1C/C=C1/C(=O)OCC1OC(C)=O (stereo unspecified)
Return: 19.3

Enquiry: Need growth, item O=C1/C(=C/c2ccc(Cl)c(Cl)c2)CN(C(=O)CCN2CCC(=NO)CC2)C/C1=C\c1ccc(Cl)c(Cl)c1
Return: -92.1

Enquiry: Need growth, item COc1ccc2nc3cc(Cl)ccc3c(NCCNCC(O)CO)c2c1 (stereo unspecified)
Return: 71.9

====

system: RPMI-8226 leukemia; assay: NCI-60 one-dose screen, 48 h; conditions: 10 µM unless noted
The panel holds about 83,000 compounds, 20% with a hit somewhere; the sample as a whole holds those more often. Active and inactive are the calls of the source. The calls were made as follows: active = growth percent below 10; inactive = the rest.
Outcome (select one): yes (1) (active), no (0) (inactive)

Enquiry: In this assay, the call recorded for O=C1C(Cl)=C(Cl)C(=O)c2c1nc1n2CCCC1 was what?
Return: no (0)

Enquiry: In this assay, the call recorded for Cc1ccc(Nc2nc(N)nc(Nc3ccc4ccccc4c3)n2)cc1 was what?
Return: no (0)

====

Recorded growth by entry
tested on: UO-31 renal; assay: NCI-60 one-dose screen, 48 h (100 = growth as untreated, 0 = no growth, -100 = all killed); settings: 10 µM unless noted
The panel holds about 83,000 compounds, 20% with a hit somewhere; the sample as a whole holds those more often. Active and inactive are the calls of the source. How the source made its calls: active means growth percent below 10; inactive means the rest.

Sample answers from the record:
Enquiry: Need growth, item O=C(CN1CCN(c2cc3c(cc2F)c(=O)c(C(=O)N/N=C/c2ccccc2)cn3C2CC2)CC1)N/N=C\c1ccccc1
Return: 53.3% (inactive)

Enquiry: Need growth, item OCCNCCNc1c2ccccc2nc2ccccc12
Return: 65.4% (inactive)

Enquiry: Need growth, item COc1ccc(C(=O)c2sc3nc4c(c(C(F)(F)F)c3c2N)CN(C(C)=O)CC4)cc1OC
Return: 46.3% (inactive)

Enquiry: Need growth, item CC(=O)OCC1OC(OC2=C(CC=C(Cl)Cl)C(=O)c3ccccc3C2=O)C(OC(C)=O)C(OC(C)=O)C1OC(C)=O (stereo unspecified)
Return: 69.3% (inactive)

Enquiry: Need growth, item C=C1CCC2C3(C)COC(c4ccc(SC)cc4)OC3CCC2(C)C1C/C=C1/C(=O)OCC1O (stereo unspecified)
Return: 60.7% (inactive)

Enquiry: Need growth, item c1ccc(CSc2ncnc3nc[nH]c23)nc1
Return: 96.4% (inactive)

Enquiry: Need growth, item Cn1cc(-c2ccc(-c3cn(C)c4ncccc34)[nH]2)c2cccnc21
Return: -81.3% (active)

Enquiry: Need growth, item Cc1nc2sc(C(=O)Nc3cccc4c3OCCO4)c(N)c2cc1C(C)O (stereo unspecified)
Return: 44.3% (inactive)

New cases:
Enquiry: Need growth, item CCCCCCCCCCCCCCCC[N+]1(CC)CCCC1
Return: 38.3% (inactive)

Enquiry: Need growth, item CN1C2CCC1/C(=C\c1ccc(Cl)cc1)C1=C2[C@@H](c2ccc(Cl)cc2)C(C#N)=C(N)O1 (stereo partly specified)
Return: 65.6% (inactive)

====

tested on: SK-MEL-2 melanoma; assay: NCI-60 one-dose screen, 48 h (100 = growth as untreated, 0 = no growth, -100 = all killed); settings: 10 µM unless noted
About 83,000 compounds went through this panel and 20% of them were active in at least one assay; those are over-represented in the sample as a whole.
// NB: equality with 90% counts as 0 (no); only growth strictly below is 1 (yes)

Please review the entries below; each comes with its answer.
Enquiry: # check: growth < 90% for O=C(Nc1ccc(Nc2cc(Nc3ccccc3)ncn2)cc1)Nc1cc(C(F)(F)F)ccc1F
Return: 1 (yes)

Enquiry: # check: growth < 90% for CCC(c1ccccc1)C(CC)c1ccc(O)c(O)c1 (stereo not given)
Return: 0 (no)

Enquiry: # check: growth < 90% for C=C1CCC2C3(C)COC(C)(C)OC3CCC2(C)C1C/C=C1/C(=O)OCC1OC(C)=O (stereo not given)
Return: 1 (yes)

Enquiry: # check: growth < 90% for CC1(C)OCC2OC3(C(=O)O)OC(C)(C)OC3C2O1 (stereo not given)
Return: 0 (no)

New cases:
Enquiry: # check: growth < 90% for COc1ccc(C2CC(=O)Nc3c2c(C)nn3-c2nc3ccccc3[nH]2)cc1 (stereo not given)
Return: 0 (no)

====

test system: OVCAR-5 ovarian; assay: NCI-60 one-dose screen, 48 h; conditions: 10 µM unless noted
Compounds without any hit were thinned out: in the full panel of roughly 83,000, 20% have a hit. The source made the active and inactive calls. How the source made its calls: active means growth percent below 10; inactive means the rest.
Outcome (select one): active, inactive

Please review the entries below; each comes with its answer.
Enquiry: In this assay, the call recorded for CCCCCCCCCCCCCCCCCCNC(=O)[C@H]1CSC(c2ccc(F)c(OC)c2)N1 (stereo partly drawn) was what?
Return: active

Enquiry: In this assay, the call recorded for O=[N+]([O-])c1cccc(-c2nc3sccn3c2-c2ccnc(NCCCNS(=O)(=O)c3cccc(F)c3)n2)c1 was what?
Return: inactive

Enquiry: In this assay, the call recorded for O=C(O)c1c([N+](=O)[O-])cnc2ccccc12 was what?
Return: inactive

Enquiry: In this assay, the call recorded for COc1ccc(-c2cnoc2-c2cc(OC)c3c(c2)OCCO3)cc1 was what?
Return: inactive

Enquiry: In this assay, the call recorded for Cc1cccc(NC(=O)c2sc3nc4c(cc3c2N)C(=O)CCC4)c1 was what?
Return: inactive

Enquiry: In this assay, the call recorded for c1ccc2sc(SCCCn3ccnc3)nc2c1 was what?
Return: inactive

New cases:
Enquiry: In this assay, the call recorded for CN1CCN(Cc2ccc(NC(=O)c3[nH]ncc3Nc3ccnc4ccsc34)cc2)CC1 was what?
Return: inactive

Enquiry: In this assay, the call recorded for O=C1Nc2ccccc2/C1=C/C(=N/c1nnc(-c2ccc(Cl)cc2)s1)c1ccccc1 was what?
Return: inactive

Enquiry: In this assay, the call recorded for Nc1nc2c(c3ncccc13)C(c1ccc(Cl)c(Cl)c1)Cc1ncccc1-2 (stereo not drawn) was what?
Return: inactive

Enquiry: In this assay, the call recorded for O=C1/C(=C/c2ccc(Cl)c(Cl)c2)CN(C(=O)CCN2CCC(=NO)CC2)C/C1=C\c1ccc(Cl)c(Cl)c1 was what?
Return: active

Enquiry: In this assay, the call recorded for COC(=O)C12C3C(=O)N(c4ccc(OC)cc4)C(=O)C3C(c3cn(-c4ccccc4)nc3C)N1[C@H](c1cn(-c3ccccc3)nc1C)[C@@H]1C(=O)N(c3ccc(OC)cc3)C(=O)[C@@H]12 (stereo partly drawn) was what?
Return: inactive

Enquiry: In this assay, the call recorded for Cn1c2ccccc2c2c3[nH]c(=O)[nH]c(=O)c3c3c4ccccc4n(C)c3c21 was what?
Return: inactive

Enquiry: In this assay, the call recorded for CCC(C)[C@@H]1NC(=O)[C@@H]2CCCN2C(=O)[C@H](Cc2ccccc2)NC(=O)[C@@H]2CCCN2C(=O)[C@H](Cc2ccccc2)NC(=O)[C@@H]2CCCN2C(=O)[C@H](Cc2ccccc2)NC1=O (stereo partly drawn) was what?
Return: inactive

Enquiry: In this assay, the call recorded for O=c1c2c3c(sc2n2c(CCl)nnc2n1Cc1ccccc1)CCCC3 was what?
Return: active

Enquiry: In this assay, the call recorded for COc1cc(C2CC(=O)c3c(C)nn(-c4nc5ccccc5[nH]4)c3C2)cc(OC)c1OC (stereo not drawn) was what?
Return: inactive

Enquiry: In this assay, the call recorded for COc1cccc(-c2nc3sccn3c2-c2ccnc(NCCCNS(=O)(=O)c3ccccc3)c2)c1 was what?
Return: inactive

Enquiry: In this assay, the call recorded for O=C(O)C(O)C(O)C(=O)O.[NH-]C1CCCCC1[NH-].[Pt+2] (stereo not drawn) was what?
Return: inactive

Enquiry: In this assay, the call recorded for Cn1c2c(Cl)c(Cl)ccc2c2ccn3c(=O)c4ccccc4nc3c21 was what?
Return: inactive

Reference source: PubChem BioAssay (NCI)
